- assay_name: AUC (0 to infinity) in Sprague-Dawley rat at 10 mg/kg, po by LC-MS/MS method
- Assay type: ADME, organism-based
- Parameters: dose 10 mg/kg, route oral, time infinity
- particulars: in vivo

{"test_smiles": "CS(=O)(=O)N1CCN(C(=O)c2cnc3ccc(F)cc3c2-c2ccc(C3(C#N)CC3)cc2)CC1", "units_symbol": "ng·h/mL", "AUC(0-inf)": 7540}

* * *

Recorded measurements of Papp, one per entry
- assay_name: Apparent permeability across basolateral to apical side in human Caco2 cells
- Type: ADME, cell-based
- particulars: caco-2
quantity_kind: Papp (×10⁻⁶ cm/s)

{"test_smiles": "CS(=O)(=O)N1CCN(C(=O)c2cnc3ccc(F)cc3c2N2CCC(C#N)(c3ccccc3)CC2)CC1", "measured_number": 17.2}
{"test_smiles": "CS(=O)(=O)N1CCN(C(=O)c2cnc3ccc(F)cc3c2-c2ccc(C3(C#N)CC3)cc2)CC1", "measured_number": 22.4}
